# Kd per entry
biological target: murine IL-2Rβ (mIL-2Rβ) (mouse) (UniProt P16297); test: SPR; mIL-2Rβ immobilised

[
  {
    "Binder": "G1_neo2_40_1F (designed binder) STKKTQLLAEHALLDALMMLNLLPEPNEKLNRIITTMQSWIFTGKIDGDGAQELAKEVEELEQEHEKRGIDVEDYASNLKVILLELA",
    "Kd": "0.485 µM"
  },
  {
    "Binder": "G1_neo2_40_1F_H1 (designed binder) STKKTQLLIEHALLDALDMSRNLPEPNEKLSRIITTMQSWIFTGKIDGDGAQQLAKEVEELEQEHEKRGEDVEDEASNLKVILLELA",
    "Kd": "6.8 µM"
  },
  {
    "Binder": "G1_neo2_40_1F_H4 (designed binder) STKKTQLLLEHALLDALHMSRELPEPNEKLNRIITDMQSWIFTGKIDGDGAQDLAKEVEELEQEHEKRGGDVEDYASNLKVILLELA",
    "Kd": "10.1 µM"
  },
  {
    "Binder": "mouse IL-2 (mIL-2) (ligand, UniProt P04351 21-169, looked up) APTSSSTSSSTAEAQQQQQQQQQQQQHLEQLLMDLQELLSRMENYRNLKLPRMLTFKFYLPKQATELKDLQCLEDELGPLRHVLDLTQSKSFQLEDAENFISNIRVTVVKLKGSDNTFECQFDDESATVVDFLRRWIAFCQSIISTSPQ",
    "Kd": "1.5 µM"
  },
  {
    "Binder": "G1_neo2_40_1F_H5 (designed binder) STKKTQLLIEHALLDALHMSRKLPEPNEKLSRIITTMQSWIFTGKIDGDGAQHLAKEVEELEQEHEKRGGEVEDEASNLKVILLELA",
    "Kd": "45.3 µM"
  }
]
